Target: VEGFR2 (Homo sapiens, UniProt P35968)
Sequence (P35968 20-1356, species assumed): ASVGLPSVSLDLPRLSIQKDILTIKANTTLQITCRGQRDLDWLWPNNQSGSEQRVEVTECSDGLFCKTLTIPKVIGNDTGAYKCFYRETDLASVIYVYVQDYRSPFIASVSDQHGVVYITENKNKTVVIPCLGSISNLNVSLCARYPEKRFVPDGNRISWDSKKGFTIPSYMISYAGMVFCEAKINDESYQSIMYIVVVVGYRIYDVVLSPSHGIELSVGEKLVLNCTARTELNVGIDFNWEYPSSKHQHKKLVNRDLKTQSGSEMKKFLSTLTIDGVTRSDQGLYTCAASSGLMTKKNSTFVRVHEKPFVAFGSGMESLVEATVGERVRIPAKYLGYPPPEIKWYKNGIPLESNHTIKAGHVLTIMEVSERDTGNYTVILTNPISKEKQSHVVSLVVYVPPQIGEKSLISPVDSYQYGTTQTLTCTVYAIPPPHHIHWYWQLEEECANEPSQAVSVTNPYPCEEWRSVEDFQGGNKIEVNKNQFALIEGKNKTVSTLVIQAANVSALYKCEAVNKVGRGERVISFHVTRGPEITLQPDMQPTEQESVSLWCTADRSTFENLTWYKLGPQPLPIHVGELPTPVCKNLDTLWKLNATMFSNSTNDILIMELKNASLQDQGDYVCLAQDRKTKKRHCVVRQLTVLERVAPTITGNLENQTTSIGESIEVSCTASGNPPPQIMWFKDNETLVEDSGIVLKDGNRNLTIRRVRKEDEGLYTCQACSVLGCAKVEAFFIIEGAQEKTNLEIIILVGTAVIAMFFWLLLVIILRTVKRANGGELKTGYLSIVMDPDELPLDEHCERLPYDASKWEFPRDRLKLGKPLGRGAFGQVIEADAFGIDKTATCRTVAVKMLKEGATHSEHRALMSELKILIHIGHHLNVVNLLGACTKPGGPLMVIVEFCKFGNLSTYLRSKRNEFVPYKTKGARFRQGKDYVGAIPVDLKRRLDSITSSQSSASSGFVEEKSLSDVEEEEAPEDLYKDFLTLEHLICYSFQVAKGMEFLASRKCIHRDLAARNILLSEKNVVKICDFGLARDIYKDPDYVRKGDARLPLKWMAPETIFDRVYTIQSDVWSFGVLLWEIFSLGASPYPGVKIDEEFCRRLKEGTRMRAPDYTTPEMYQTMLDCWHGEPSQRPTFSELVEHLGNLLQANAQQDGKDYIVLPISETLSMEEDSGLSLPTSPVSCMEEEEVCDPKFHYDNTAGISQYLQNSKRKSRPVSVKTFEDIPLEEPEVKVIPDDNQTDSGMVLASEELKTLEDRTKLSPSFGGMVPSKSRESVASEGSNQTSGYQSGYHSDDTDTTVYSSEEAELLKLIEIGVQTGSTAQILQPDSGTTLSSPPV
measure: IC50 (µM)

COC(=O)Nc1nc2ccc(C(=O)c3ccccc3)cc2[nH]1    3.6
